This collection of values is drawn from patent US20190177417A1.

- TESTED_ON: T1, Axl protein (human, UniProt P30530 26-451)
- T1 construct: extracellular domain; also called human Axl; hAxl
- T1 sequence (looked up): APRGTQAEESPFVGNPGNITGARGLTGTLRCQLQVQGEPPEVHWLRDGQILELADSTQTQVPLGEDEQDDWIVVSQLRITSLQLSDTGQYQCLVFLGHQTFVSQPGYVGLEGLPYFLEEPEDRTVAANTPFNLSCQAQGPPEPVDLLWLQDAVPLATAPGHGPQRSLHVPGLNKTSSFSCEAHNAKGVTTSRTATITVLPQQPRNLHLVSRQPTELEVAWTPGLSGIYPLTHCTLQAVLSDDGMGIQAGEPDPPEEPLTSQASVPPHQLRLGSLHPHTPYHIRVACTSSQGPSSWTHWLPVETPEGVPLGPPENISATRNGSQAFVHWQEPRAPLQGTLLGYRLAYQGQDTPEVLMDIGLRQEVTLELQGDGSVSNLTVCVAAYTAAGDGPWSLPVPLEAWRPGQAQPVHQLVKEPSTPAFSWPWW
- PROCEDURE_DETAILS: ELISA, 1:3 dilution, pH 6.0 over pH 7.4
As shown below, each of these binders has a reported Affinity ELISA CPE mutant ratio (1:3, pH 6.0/7.4) value.
All answers are understood in ratio, so give the number only.

Examples with answers:
BINDER: LC-P095V (antibody, V domains shown) VH: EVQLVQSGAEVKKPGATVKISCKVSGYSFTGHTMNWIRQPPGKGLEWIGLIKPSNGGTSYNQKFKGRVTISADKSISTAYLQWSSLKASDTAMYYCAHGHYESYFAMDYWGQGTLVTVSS VL: DIQMTQSPSSLSASVGDRVTITCKASQDVSSAVAWYQQKPGQAPRLLIYWASTRHTGVPSRFSGSGSGTEFTLTISSLQPDDFATYYCQEHFSTVLTFGQGTKVEIK
DATA_VALUE: 1.87
//
BINDER: LC-H091V (antibody, V domains shown) VH: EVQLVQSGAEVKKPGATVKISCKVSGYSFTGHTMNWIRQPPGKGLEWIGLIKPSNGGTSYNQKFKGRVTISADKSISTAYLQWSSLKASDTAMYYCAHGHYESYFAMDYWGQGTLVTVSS VL: DIQMTQSPSSLSASVGDRVTITCKASQDVSSAVAWYQQKPGQAPRLLIYWASTRHTGVPSRFSGSGSGTEFTLTISSLQPDDFATYYCQEVFSTPLTFGQGTKVEIK
DATA_VALUE: 4.13

Now take the following binder into account.
Form field: reported Affinity ELISA CPE mutant ratio (1:3, pH 6.0/7.4) of LC-V029N (antibody, V domains shown) VH: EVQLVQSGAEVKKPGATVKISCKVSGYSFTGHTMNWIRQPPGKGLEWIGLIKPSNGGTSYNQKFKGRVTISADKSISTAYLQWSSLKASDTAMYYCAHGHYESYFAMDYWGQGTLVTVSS VL: DIQMTQSPSSLSASVGDRVTITCKASQDNSSAVAWYQQKPGQAPRLLIYWASTRHTGVPSRFSGSGSGTEFTLTISSLQPDDFATYYCQEHFSTPLTFGQGTKVEIK
2.6
